// endpoint AC50 / system Adenosine receptor A1 (Homo sapiens); further: assay procedure not described here

Use these answered entries as a reference point.
COMPOUND	MEASUREMENT_KIND	DATA_VALUE
Cc1cc(C(C)(C)C)cc(C)c1CC1=NCCN1	AC50	> 30 µM
C[C@]12CCC(=O)C(O)=C1CC[C@@H]1[C@@H]2CC[C@]2(C)C(=O)CC[C@@H]12	AC50	> 30 µM
COc1ccccc1OCCNCC(O)COc1cccc2[nH]c3ccccc3c12 (stereo not given)	AC50	> 30 µM
NC1CCN(c2nc3c(cc2F)c(=O)c(C(=O)O)cn3-c2ccc(F)cc2F)C1 (stereo not given)	AC50	> 30 µM

Turning to the following compound.
# value lookup — system Adenosine receptor A1 (Homo sapiens), readout AC50, item CCOC(=O)C1=C[C@]2(CC)CCCN3CCc4c(n1c1ccccc41)[C@@H]32; further: assay procedure not described here
30 µM

###

# TARGET_OF_ASSAY: Growth hormone secretagogue receptor type 1 (Homo sapiens, UniProt Q92847); further: assay procedure not described here
# Sequence (Q92847 whole entry): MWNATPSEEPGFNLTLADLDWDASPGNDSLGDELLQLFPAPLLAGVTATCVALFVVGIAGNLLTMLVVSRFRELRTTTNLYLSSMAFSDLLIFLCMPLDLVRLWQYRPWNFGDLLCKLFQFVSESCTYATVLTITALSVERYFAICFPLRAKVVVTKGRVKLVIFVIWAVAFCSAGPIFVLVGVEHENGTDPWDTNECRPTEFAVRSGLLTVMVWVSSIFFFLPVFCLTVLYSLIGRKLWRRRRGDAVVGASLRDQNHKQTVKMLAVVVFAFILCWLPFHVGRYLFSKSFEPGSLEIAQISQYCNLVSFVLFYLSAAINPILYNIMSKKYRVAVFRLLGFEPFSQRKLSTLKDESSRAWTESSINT
The following compounds are listed with their measured AC50 values.

Use these answered entries as a reference point.
COMPOUND	MEASUREMENT_KIND	DATA_VALUE
CN(C)CC[C@@H](c1ccc(Cl)cc1)c1ccccn1 [DEXCHLORPHENIRAMINE]	AC50	> 30 µM
CC(C)COCC(CN(Cc1ccccc1)c1ccccc1)N1CCCC1 (stereo not drawn) [BEPRIDIL]	AC50	22.1 µM
CCCC(CCC)C(=O)O [VALPROIC ACID]	AC50	> 30 µM
CO[C@H]1/C=C/O[C@@]2(C)Oc3c(C)c(O)c4c(O)c(c(/C=N/N5CCN(C)CC5)c(O)c4c3C2=O)NC(=O)/C(C)=C\C=C\[C@H](C)[C@H](O)[C@@H](C)[C@@H](O)[C@@H](C)[C@H](OC(C)=O)[C@@H]1C [RIFAMPIN]	AC50	> 30 µM
CCC(C)C(CC)C(N)=O (stereo not drawn) [VALNOCTAMIDE]	AC50	> 30 µM

Turning to the following compound.
Could you share which AC50 value was measured for C[C@@H](Oc1cc(-c2cnn(C3CCNCC3)c2)cnc1N)c1c(Cl)ccc(F)c1Cl [CRIZOTINIB] ?
13.9 µM

###

# TARGET_OF_ASSAY: Motilin receptor (Homo sapiens, UniProt O43193); further: assay procedure not described here
# Sequence (O43193 whole entry): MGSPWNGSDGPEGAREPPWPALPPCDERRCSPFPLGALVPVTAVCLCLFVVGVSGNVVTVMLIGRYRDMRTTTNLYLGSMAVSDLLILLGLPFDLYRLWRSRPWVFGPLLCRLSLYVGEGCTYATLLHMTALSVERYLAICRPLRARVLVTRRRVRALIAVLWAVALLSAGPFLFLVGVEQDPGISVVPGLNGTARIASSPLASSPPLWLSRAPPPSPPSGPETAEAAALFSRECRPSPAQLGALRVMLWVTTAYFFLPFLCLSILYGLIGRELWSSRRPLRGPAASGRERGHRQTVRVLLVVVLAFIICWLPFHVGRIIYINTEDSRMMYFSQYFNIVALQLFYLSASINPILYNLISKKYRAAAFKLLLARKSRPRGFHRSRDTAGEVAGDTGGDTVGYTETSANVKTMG
MEASUREMENT_KIND: AC50

COMPOUND	DATA_VALUE
N[C@@H](CC(=O)N1CCn2c(nnc2C(F)(F)F)C1)Cc1cc(F)c(F)cc1F	> 30 µM

# value lookup — system Motilin receptor (Homo sapiens, UniProt O43193), readout AC50, item CC(N)C(O)c1ccccc1 (configuration not stated); further: assay procedure not described here
> 10 µM

# value lookup — system Motilin receptor (Homo sapiens, UniProt O43193), readout AC50, item COc1ccc(CC2c3cc(OC)c(OC)cc3CC[N+]2(C)CCC(=O)OCCCCCOC(=O)CC[N+]2(C)CCc3cc(OC)c(OC)cc3C2Cc2ccc(OC)c(OC)c2)cc1OC (configuration not stated); further: assay procedure not described here
> 30 µM

# value lookup — system Motilin receptor (Homo sapiens, UniProt O43193), readout AC50, item CCCCC(=O)O[C@]1(C(=O)CO)[C@@H](C)C[C@H]2[C@@H]3CCC4=CC(=O)C=C[C@]4(C)[C@@]3(F)[C@@H](O)C[C@@]21C [BETAMETHASONE VALERATE]; further: assay procedure not described here
> 10 µM

# value lookup — system Motilin receptor (Homo sapiens, UniProt O43193), readout AC50, item CC(C)[C@H](N)C(=O)OCC(CO)OCn1cnc2c(=O)nc(N)[nH]c21 (some centres not stated); further: assay procedure not described here
> 30 µM

# value lookup — system Motilin receptor (Homo sapiens, UniProt O43193), readout AC50, item CN1CCN(C2=Nc3ccccc3Oc3ccc(Cl)cc32)CC1; further: assay procedure not described here
> 10 µM

# value lookup — system Motilin receptor (Homo sapiens, UniProt O43193), readout AC50, item C/C(=C\C(=O)OCCCCCCCCC(=O)O)C[C@@H]1OC[C@H](C[C@@H]2O[C@H]2[C@@H](C)[C@H](C)O)[C@@H](O)[C@H]1O; further: assay procedure not described here
> 10 µM

###

The following compounds are listed with their measured AC50 values.
# TARGET_OF_ASSAY: Motilin receptor (Homo sapiens); further: assay procedure not described here

Use these answered entries as a reference point.
COMPOUND	TARGET_OF_ASSAY	AC50
C=C1/C(=C\C=C2/CCC[C@]3(C)[C@@H]([C@H](C)/C=C/[C@@H](O)C4CC4)CC[C@@H]23)C[C@@H](O)C[C@@H]1O [CALCIPOTRIENE]	Motilin receptor (Homo sapiens)	> 30 µM
CCC(=O)O[C@]1(C(=O)SCF)[C@H](C)C[C@H]2[C@@H]3C[C@H](F)C4=CC(=O)C=C[C@]4(C)[C@@]3(F)[C@@H](O)C[C@@]21C [FLUTICASONE PROPIONATE]	Motilin receptor (Homo sapiens)	> 30 µM
C/N=C(\NC)NCc1ccccc1 [BETHANIDINE]	Motilin receptor (Homo sapiens)	> 30 µM

Could you share which AC50 value was measured for CC(C)N(CCC(C(N)=O)(c1ccccc1)c1ccccn1)C(C)C (centres undefined) [DISOPYRAMIDE] ?
> 30 µM

###

# TARGET_OF_ASSAY: Mu-type opioid receptor (Homo sapiens); further: assay procedure not described here
# Sequence (P35372 whole entry): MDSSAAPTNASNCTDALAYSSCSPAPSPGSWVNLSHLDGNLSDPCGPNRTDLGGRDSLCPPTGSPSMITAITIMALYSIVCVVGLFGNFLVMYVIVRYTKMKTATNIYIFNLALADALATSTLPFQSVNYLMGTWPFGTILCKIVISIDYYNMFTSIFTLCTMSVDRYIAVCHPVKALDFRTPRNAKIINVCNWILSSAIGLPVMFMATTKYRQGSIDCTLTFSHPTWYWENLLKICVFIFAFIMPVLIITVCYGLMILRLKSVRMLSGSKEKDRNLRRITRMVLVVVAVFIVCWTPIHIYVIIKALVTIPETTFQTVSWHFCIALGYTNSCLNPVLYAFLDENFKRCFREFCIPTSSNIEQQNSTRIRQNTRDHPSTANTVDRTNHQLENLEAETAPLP
MEASUREMENT_KIND: AC50

Use these answered entries as a reference point.
COMPOUND	AC50
C[C@H](CCC(=O)O)[C@H]1CC[C@H]2[C@@H]3[C@@H](O)C[C@@H]4C[C@H](O)CC[C@]4(C)[C@H]3CC[C@]12C	> 30 µM
CCCCC(=O)O[C@]1(C(=O)CO)[C@@H](C)C[C@H]2[C@@H]3CCC4=CC(=O)C=C[C@]4(C)[C@@]3(F)[C@@H](O)C[C@@]21C [BETAMETHASONE VALERATE]	> 30 µM

Turning to the following compound.
# value lookup — system Mu-type opioid receptor (Homo sapiens), readout AC50, item [H]/N=C(/N)N/C(=N/[H])NCCc1ccccc1; further: assay procedure not described here
> 30 µM

###

// endpoint AC50 / system Glucocorticoid receptor (Homo sapiens, UniProt P04150); further: assay procedure not described here

COMPOUND	MEASUREMENT_KIND	DATA_VALUE
COc1ccc(-c2noc(CC(=O)O)c2-c2ccc(OC)cc2)cc1 [MOFEZOLAC]	AC50	> 30 µM
CC(C)c1nc(N(C)S(C)(=O)=O)nc(-c2ccc(F)cc2)c1/C=C/[C@@H](O)C[C@@H](O)CC(=O)O [ROSUVASTATIN]	AC50	> 30 µM
CCCC(CCC)C(=O)O [VALPROIC ACID]	AC50	> 30 µM
C#CCOc1ccc(N)cc1C(=O)NCCCC [PARSALMIDE]	AC50	> 30 µM
CC12CC3CC(C)(C1)CC(N)(C3)C2 [MEMANTINE]	AC50	> 30 µM
CCOC(=O)O[C@]1(C(=O)OCCl)CC[C@H]2[C@@H]3CCC4=CC(=O)C=C[C@]4(C)[C@H]3[C@@H](O)C[C@@]21C [LOTEPREDNOL ETABONATE]	AC50	0.0056 µM
CC(N)C12CC3CC(CC(C3)C1)C2 (stereo not drawn) [RIMANTADINE]	AC50	> 10 µM
CCOC(=O)C1=C[C@]2(CC)CCCN3CCc4c(n1c1ccccc41)[C@@H]32 [VINPOCETINE]	AC50	> 30 µM

# value lookup — system Glucocorticoid receptor (Homo sapiens, UniProt P04150), readout AC50, item CC(N)C(O)c1ccccc1 (stereo not drawn) [PHENYLPROPANOLAMINE]; further: assay procedure not described here
> 30 µM

# value lookup — system Glucocorticoid receptor (Homo sapiens, UniProt P04150), readout AC50, item Clc1ccc(C(Cn2ccnc2)OCc2ccsc2Cl)c(Cl)c1 (stereo not drawn) [TIOCONAZOLE]; further: assay procedure not described here
17.9 µM

# value lookup — system Glucocorticoid receptor (Homo sapiens, UniProt P04150), readout AC50, item CC(C)[C@H](N)C(=O)OCC(CO)OCn1cnc2c(=O)nc(N)[nH]c21 (stereo partly drawn) [VALGANCICLOVIR]; further: assay procedure not described here
> 30 µM

# value lookup — system Glucocorticoid receptor (Homo sapiens, UniProt P04150), readout AC50, item CN(C)CCCNc1c2ccccc2nc2cccc([N+](=O)[O-])c12 [NITRACRINE]; further: assay procedure not described here
> 30 µM

###

// endpoint AC50 / system Glutamate receptor ionotropic, NMDA 1 (Rattus norvegicus, UniProt P35439); further: assay procedure not described here

Use these answered entries as a reference point.
MOLECULE	TARGET_OF_ASSAY	AC50
NC(=O)CN1CCCC1=O	Glutamate receptor ionotropic, NMDA 1 (Rattus norvegicus, UniProt P35439)	> 30 µM
Oc1ccc2c(c1)[C@@]13CCCC[C@@]1(O)[C@@H](C2)N(CC1CCC1)CC3	Glutamate receptor ionotropic, NMDA 1 (Rattus norvegicus, UniProt P35439)	> 30 µM
CCN(CC)CCNC(=O)c1c(C)[nH]c(/C=C2\C(=O)Nc3ccc(F)cc32)c1C	Glutamate receptor ionotropic, NMDA 1 (Rattus norvegicus, UniProt P35439)	> 30 µM
CCCC(CCC)C(=O)O	Glutamate receptor ionotropic, NMDA 1 (Rattus norvegicus, UniProt P35439)	> 10 µM
CN1CCN(C2=Nc3ccccc3Oc3ccc(Cl)cc32)CC1	Glutamate receptor ionotropic, NMDA 1 (Rattus norvegicus, UniProt P35439)	> 10 µM

Could you share which AC50 value was measured for C/N=C(\NC)NCc1ccccc1 ?
> 30 µM

Could you share which AC50 value was measured for CC1=C(C)C(=O)C(C(CCCCCC(=O)O)c2ccccc2)=C(C)C1=O (stereo unspecified) ?
> 30 µM

Could you share which AC50 value was measured for CN1CCC(=C2c3ccccc3CCc3cccnc32)CC1 ?
> 10 µM
